Reference for the values: patent US10442931B2

Below: a set of entries, each annotated with reported Maximum absorption wavelength band.
ASSAY TEXT: Maximum absorption wavelength band and absorbance, Shimadzu UV-1800 UV-vis spectrophotometer
Type: physicochemical

Worked cases, answers included:
{"COMPOUND STRUCTURE STRING": "CCN(CC)c1ccc(/N=N/c2ccc(N3CCN(c4ccc(/N=N/c5ccc(N(CC)CC)cc5O)cc4)CC3)cc2)c(O)c1", "Maximum absorption wavelength band": "500-600 nm"}
{"COMPOUND STRUCTURE STRING": "CCCCOc1ccc(/N=N/c2ccc(N3CCN(c4ccc(/N=N/c5ccc(OCCCC)cc5)cc4)CC3)cc2)cc1", "Maximum absorption wavelength band": "500-600 nm"}
{"COMPOUND STRUCTURE STRING": "CCCCN(C)c1ccc(/N=N/c2ncc(-c3cnc(/N=N/c4ccc(N(C)CCCC)cc4)s3)s2)cc1", "Maximum absorption wavelength band": "≥ 600- nm"}
{"COMPOUND STRUCTURE STRING": "CCCCOc1ccc(/N=N/c2ccc(/C=C/c3ccc(/N=N/c4ccc(OCCCC)cc4)cc3)cc2)cc1", "Maximum absorption wavelength band": "400-500 nm"}
{"COMPOUND STRUCTURE STRING": "C=C(C)C(=O)N(CC)c1ccc(/N=N/c2ccc(N3CCN(c4ccc(/N=N/c5ccc(N(CC)C(=O)C(=C)C)cc5C)cc4)CC3)cc2)c(C)c1", "Maximum absorption wavelength band": "500-600 nm"}
{"COMPOUND STRUCTURE STRING": "CCCCN(C)c1ccc(/N=N/c2ccc(N3CCN(c4ccc(/N=N/c5ccc(N(C)CCCC)cc5)cc4)CC3)cc2)cc1", "Maximum absorption wavelength band": "500-600 nm"}

Param item = CCN(CC)c1ccc(/N=N/c2ncc(-c3cnc(/N=N/c4ccc(N(CC)CC)cc4O)s3)s2)c(O)c1 ; retrieve measured Maximum absorption wavelength band. ≥ 600- nm

Entry Nc1ccc(/N=N/c2ccc(-c3ccc(-c4ccc(/N=N/c5ccc(N)cc5)cc4)cc3)cc2)cc1 please 500-600 nm

Now try Cc1c(O)c(/N=N/c2ncc(-c3cnc(/N=N/c4cc5ccc(N)cc5c(C)c4O)s3)s2)cc2ccc(N)cc12 . ≥ 600- nm
